The measured values listed here are drawn from patent US20230348852A1.

Test system: human limbal stem cells
Experiment: Human limbal stem cell population expansion and measurement (expansion factor, p63alpha-positive cells)
Type: cell-based
Details: 10 micromolar in XVIVO15 medium, two passages; share of Sytox Orange-positive nuclei expressing p63alpha
Values of Percentage of p63a-positive cells greater than or equal to 90% map to true; values below map to false.

// known answers, use as guide
molecule: CCCNc1nc(-c2ccncc2)nc2cnccc12
assigned-class: true

molecule: CC(C)(Nc1nc(-c2ccncc2Cl)nc2cnccc12)C(F)(F)F
assigned-class: false

molecule: O[C@H]1CCC[C@@H]1Nc1nc(-c2ccncc2)nc2cnccc12
assigned-class: false

molecule: CC1CCCC1Nc1nc(-c2ccncc2)nc2cnccc12 (centres unmarked)
assigned-class: false

molecule: CC1(Nc2cc(-c3ccncc3)cc3cnccc23)CC1
assigned-class: false

molecule: CC(C)Nc1nc(-c2ccncc2)nc2cnccc12
assigned-class: true

molecule: c1cc(-c2nc(NC3CCCC3)c3ccncc3n2)ccn1
assigned-class: false

We now examine a further molecule.
Exercise: Evaluate FC(F)(F)C1(Nc2nc(-c3ccncc3)nc3cnccc23)CCC1 : Percentage of p63a-positive cells at minimum 90%?
Solution: true
